Across several publications, the following pKi results were reported for Carbonic anhydrase 9 (Homo sapiens, UniProt Q16790).
Keep it numeric: pKi is minus log10 of the concentration in mol/L.

// known answers, use as guide
// lookup pKi | system=Carbonic anhydrase 9 (Homo sapiens, UniProt Q16790) | key= COc1cccc(-n2cc(COc3ccc(S(N)(=O)=O)cc3)nn2)c1
7.69

// lookup pKi | system=Carbonic anhydrase 9 (Homo sapiens, UniProt Q16790) | key= NS(=O)(=O)c1nnc(/N=C/c2ccc(/C=N/c3nnc(S(N)(=O)=O)s3)o2)s1
8.23

// lookup pKi | system=Carbonic anhydrase 9 (Homo sapiens, UniProt Q16790) | key= CC1=C(CC(=O)NCCOc2ccc3oc(=O)ccc3c2)c2cc(F)ccc2/C1=C\c1ccc([S+](C)[O-])cc1 (configuration not stated)
7.51

// lookup pKi | system=Carbonic anhydrase 9 (Homo sapiens, UniProt Q16790) | key= COc1ccc(/C=C(\C#N)C(=O)Nc2ccc(S(N)(=O)=O)cc2)cc1
9.07

// lookup pKi | system=Carbonic anhydrase 9 (Homo sapiens, UniProt Q16790) | key= NS(=O)(=O)c1ccc(OCCCCO[N+](=O)[O-])cc1
7.60

// lookup pKi | system=Carbonic anhydrase 9 (Homo sapiens, UniProt Q16790) | key= NS(=O)(=O)c1ccc(NC(=O)/C=C/c2cc(Cl)cc(Cl)c2)cc1
6.64

// lookup pKi | system=Carbonic anhydrase 9 (Homo sapiens, UniProt Q16790) | key= Cc1cc(NS(=O)(=O)c2ccc(N3C(=O)/C(=C/c4coc5ccccc5c4=O)N=C3c3ccccc3)cc2)no1
7.60

// lookup pKi | system=Carbonic anhydrase 9 (Homo sapiens, UniProt Q16790) | key= NC(=S)NNC(=O)c1ccccc1O
6.00

// lookup pKi | system=Carbonic anhydrase 9 (Homo sapiens, UniProt Q16790) | key= NS(=O)(=O)c1ccc(C(=O)NCCc2cccc(O)c2)cc1
7.38

// lookup pKi | system=Carbonic anhydrase 9 (Homo sapiens, UniProt Q16790) | key= Nc1nc(-c2ccc(NC(=O)c3ccc(O)c(O)c3)cc2)cn2c(=O)n(-c3ccccc3)nc12
4.35

Okay, now this compound:
// lookup pKi | system=Carbonic anhydrase 9 (Homo sapiens, UniProt Q16790) | key= O=C(Nc1ccc(Cl)cc1C(=O)O)c1ccc2c(c1)C(=O)N(Cc1ccccc1)C2=O
4.33
